Source listed as PubChem BioAssay AID430.

Entries and their cytotoxicity values follow.
assay_explanation: cytotoxicity in HPDE-C7 cells, cell-based, fluorescence, HTS (AID 430);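 further: cells exposed to compound for 48 hours before viability readout; 0% = vehicle and 100% = reference cytotoxic drug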
applied_conditions: HPDE-C7 pancreatic duct cells viability, at 10 µM, hits give high values
About 1,100 (1.7%) of roughly 63,000 compounds were called active. The full list was thinned out, with actives kept by preference. Results with a measured potency or affinity are listed apart.

molecule	uom	cytotoxicity
c1ccc(Cc2nnc3sc(Nc4ccccc4)nn23)cc1	%	3
O=C1c2ccccc2C(=O)N1CCc1nc2ccccc2c(=O)n1CCCn1ccnc1	%	-20.5
Cc1ccc(-n2c(Cn3cnc4ccccc43)nnc2SCC(=O)O)cc1	%	-16.2
Cc1ccc(C(=O)CC(C(=O)O)n2cccn2)cc1 (stereo unspecified)	%	-3.1
COc1ccc2nc(SCC(=O)NC(C)C)[nH]c2c1	%	-13.4
N#Cc1ccc(NC(=O)Nc2ccc(Cl)cc2)cc1	%	57.7
Cc1noc(C)c1S(=O)(=O)Nc1ccc(C(=O)N2CCN(c3ccc(Cl)cc3)CC2)cc1	%	-12.9
Cc1ccc(C)c(N2CCN(C(=O)c3ccc(NS(=O)(=O)c4c(C)noc4C)cc3)CC2)c1	%	41.2
CN(CC(=O)Nc1ccc(C#N)cc1)Cc1ccc(Cl)cc1	%	6.1
Cc1cc(Cl)ccc1OCC(=O)N1CC(C)CC(C)C1 (stereo unspecified)	%	-10.4
COC(=O)c1ccccc1NC(=O)Cn1cc2c(n1)CCC(C)C2 (stereo unspecified)	%	-7.1

====

assay_explanation: cytotoxicity in HPDE-C7 cells, cell-based, fluorescence, HTS (AID 430);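 further: cells exposed to compound for 48 hours before viability readout; 0% = vehicle and 100% = reference cytotoxic drug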
applied_conditions: HPDE-C7 pancreatic duct cells viability, at 10 µM
The whole screen tested about 63,000 compounds, of which about 1,100 (1.7%) were called active. Cut-off read from the data, not from the text of the source: active = cytotoxicity above about 50%; inactive = the rest. The entries come from a sample that favours actives as a whole. Entries with a potency or affinity are not part of this list.
Possible outcomes: true (1) = active, false (0) = inactive

molecule	assigned_label
Cn1c(=Nc2ccc(N3CCOCC3)cc2)ccc2ccccc21	false (0)
Cc1ccc2cc3c(N)c(C(=O)N4CCOCC4)sc3nc2c1	false (0)
O=C(CSc1nnc(-c2cnccn2)n1Cc1ccco1)c1ccccc1	false (0)
Cc1ccc(CN2CCN(C(=O)C3CCCO3)CC2)cc1 (stereo not given)	false (0)
COC(=O)c1nc2n(n1)C(c1ccc(OC)c(OC)c1OC)C1=C(CCCC1=O)N2 (stereo not given)	false (0)
O=C1c2ccccc2C(=O)N1Cc1ccco1	false (0)
COc1ccc(C(=O)NCCn2cc(SCC(=O)Nc3cc(C)on3)c3ccccc32)cc1OC	false (0)
CC(C)Sc1nc(NCc2ccco2)c2c3c(sc2n1)COC(C)(C)C3	true (1)
CCn1c(Cc2ccc(OC)cc2)nnc1SCC(=O)Nc1nc2ccccc2s1	false (0)
c1ccc(-c2nn3c(Cn4nnc5ccccc54)nnc3s2)nc1	false (0)
Cc1cccc2cc3c(N)c(C(=O)N4CCOCC4)sc3nc12	true (1)
COc1ccc2[nH]c(=O)c(CN(C(=O)c3ccccn3)C3CCCCC3)cc2c1	false (0)
Cc1nc(SCC(=O)NCc2ccco2)c2c3c(sc2n1)CCCC3	false (0)
CCOc1cc(C#N)c(NC(=O)c2ccnn2C)cc1OCC	false (0)
CCC(C)n1cnc2c(c1=O)c1nc3ccccc3nc1n2Cc1ccc2c(c1)OCO2 (stereo not given)	false (0)
C[C@]12CC[C@@H]3c4ccc(O)cc4CC[C@H]3[C@@H]1CCC2=O	false (0)
CC(C)c1nc2sc3c(SCC(=O)NCc4ccco4)ncnc3c2c2c1CCC2	false (0)
O=C(Nc1ccccn1)c1cccnc1	false (0)
c1ccc2c(c1)oc1c(NCc3ccc4c(c3)OCO4)ncnc12	false (0)
COC(=O)CNC(=O)COC(=O)C(Cc1ccccc1)NC(=O)c1ccco1 (stereo not given)	false (0)
Cc1ccc2nc3sc(C(=O)N4CCOCC4)c(N)c3cc2c1	false (0)
NS(=O)(=O)c1ccc(NC(=O)CSC2CCCCC2)cc1	false (0)
CSc1nc(SCC(=O)NCc2ccco2)c2c3c(sc2n1)COC(C)(C)C3	true (1)
CCOC(=O)c1cc(-c2ccncc2)nc2c1c(C)nn2C	false (0)
c1ccc(-c2nnc(N3CCN(c4ccccn4)CC3)c3ccccc23)cc1	false (0)
CCOC(=O)CC12CN3CN(C1)CC(CC(=O)OCC)(C3)C2=O	false (0)
COc1ccc(-c2oc3ncnc(NCCCN4CCOCC4)c3c2-c2ccc(OC)cc2)cc1	true (1)
O=C(CCCC(=O)N(CC(=O)NC1CCCC1)C1CCCC1)Nc1ccccn1	false (0)
CCn1c(SCC(=O)Nc2nc3ccccc3s2)nnc1-c1ccc(OC)cc1	true (1)
CCCC(=O)c1ccc(N2CCN(C(=O)c3ccc(Br)cc3)CC2)c(F)c1	false (0)
CC(C)c1nc2sc3c(NCc4ccco4)ncnc3c2c2c1COC(C)(C)C2	false (0)
CCCc1nc2sc3c(SCC(=O)NCc4ccco4)ncnc3c2c2c1CCC2	true (1)
CCOC(=O)c1sc(NC(=O)CCSC)nc1C	false (0)
Cc1cc(S(=O)(=O)N(Cc2ccc3c(c2)OCO3)CC2CCCO2)ccc1-n1cnnn1 (stereo not given)	false (0)
O=C(Nc1nc2ccccc2n1CCOc1ccccc1)c1ccco1	false (0)
COc1ccc(S(=O)(=O)N(CC(=O)NCCCN(C)C)c2ccc(C)cc2)cc1OC	false (0)
O=C1CC(c2ccncc2)c2cc3c(cc2N1)OCCO3 (stereo not given)	false (0)
c1ccc(COc2ccc(Nc3ncnc4nc[nH]c34)cc2)cc1	false (0)
c1coc(CNc2ncnc3sc4c(c23)CCCCC4)c1	false (0)
CCOc1cc(C#N)c(NC(=O)c2cccnc2)cc1OCC	true (1)
COc1ccccc1Cn1c(=O)c2ccccc2n2c(SCC(=O)N3CCCCC3)nnc12	false (0)
C[C@]12CC[C@@H]3c4ccc(O)cc4CC[C@H]3[C@@H]1CC[C@@H]2OC(=O)CCC(=O)O	false (0)
CC1(C)Cc2c(c(=S)nc(-c3ccccc3)n2CCN2CCOCC2)CO1	false (0)
O=C(COc1cc(Cl)c(Cl)cc1Cl)Nc1ccncc1	false (0)
c1ccc(CSc2nnc3c(n2)OC(c2ccco2)Nc2ccccc2-3)cc1 (stereo not given)	false (0)
